assay: Plasma pharmacokinetics after multiple ascending doses (MAD), phase 1; assay type: in vivo, human (healthy adult participants); conditions: human, plasma, iv, 150 mg, Last q6h dose (day 9), 7-day MAD 150 mg q6h × 7, n = 5, arithmetic mean ± SD
Where a SMILES comes first, the peptide text is derived from it. Bridges are numbered along the chain shown (N, C = ends). [ ]: non-standard residue; d: D form. The star is where a group is joined. X1 = O=C(c1ccc(Cl)cc1Cl)*; Dab = NCC[C@H](N)C(=O)O; Abu = CC[C@H](N)C(=O)O; Dap = NC[C@H](N)C(=O)O
VALUE KIND: half-life (h)
Numbers only, in h.

Could you please provide reported half-life for CC[C@@H]1NC(=O)[C@@H](CC(C)C)NC(=O)[C@H](CCN)NC(=O)[C@@H](NC(=O)[C@H](CN)NC(=O)[C@@H](NC(=O)[C@H](CCN)NC(=O)c2ccc(Cl)cc2Cl)[C@@H](C)O)CCNC(=O)[C@H]([C@@H](C)O)NC(=O)[C@H](CCN)NC(=O)[C@H](CCN)NC1=O [BRII-693] (X1-[Dab]T[Dap][Dab][Dab][dL][Abu][Dab][Dab]T; lactam 4-C; N-terminus assumed) ? Thanks!
6.76
